target: LAT-1 (Homo sapiens, UniProt Q01650); construct: host or cells: FaDu human nasopharyngeal carcinoma cells; assay: LAT-1 mediated competition studies, boron uptake in FaDu cells; format: cell-based; details: 0.5 mM TLS00192 as substrate, HBSS, 2 hours, 37° C., read-out: IC50 of inhibitor on LAT1-mediated uptake of TLS00192
Sequence (Q01650 whole entry): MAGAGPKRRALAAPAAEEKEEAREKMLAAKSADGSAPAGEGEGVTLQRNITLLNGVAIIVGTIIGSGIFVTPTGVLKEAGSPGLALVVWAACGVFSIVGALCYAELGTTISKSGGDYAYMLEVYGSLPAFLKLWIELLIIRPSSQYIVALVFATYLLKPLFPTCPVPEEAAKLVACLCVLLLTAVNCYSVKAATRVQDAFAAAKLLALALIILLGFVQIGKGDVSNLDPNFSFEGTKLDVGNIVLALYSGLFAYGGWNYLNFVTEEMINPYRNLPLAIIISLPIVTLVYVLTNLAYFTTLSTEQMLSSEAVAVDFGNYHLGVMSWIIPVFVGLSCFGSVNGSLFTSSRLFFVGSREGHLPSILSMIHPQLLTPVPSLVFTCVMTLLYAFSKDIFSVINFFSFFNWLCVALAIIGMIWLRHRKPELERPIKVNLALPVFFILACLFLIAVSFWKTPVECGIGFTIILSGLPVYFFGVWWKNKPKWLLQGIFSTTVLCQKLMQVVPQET
Sequence (P08195 102-630 partner): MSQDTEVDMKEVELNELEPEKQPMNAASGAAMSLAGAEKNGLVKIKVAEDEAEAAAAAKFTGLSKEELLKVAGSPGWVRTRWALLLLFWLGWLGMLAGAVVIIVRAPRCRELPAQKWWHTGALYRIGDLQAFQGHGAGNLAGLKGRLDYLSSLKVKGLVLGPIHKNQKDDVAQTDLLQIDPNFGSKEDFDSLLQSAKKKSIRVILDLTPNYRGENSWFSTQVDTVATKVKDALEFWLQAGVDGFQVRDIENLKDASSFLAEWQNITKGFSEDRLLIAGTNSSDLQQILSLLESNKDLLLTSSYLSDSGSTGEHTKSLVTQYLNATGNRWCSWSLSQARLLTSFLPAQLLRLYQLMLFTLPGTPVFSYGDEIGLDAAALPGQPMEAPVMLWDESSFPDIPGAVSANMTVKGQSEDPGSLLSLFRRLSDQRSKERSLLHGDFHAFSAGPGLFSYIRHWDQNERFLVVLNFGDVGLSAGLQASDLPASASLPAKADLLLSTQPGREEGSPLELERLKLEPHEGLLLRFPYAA
PROPERTY_LABEL: IC50 (nM)
Form entry: value (nM) — number only.

Q: Fill in IC50 for record Nc1cc(COc2c(Cl)cc(C[C@H](N)C(=O)O)cc2Cl)c2oc(-c3ccccc3)nc2c1 [JPH203]
Ans: 190

====

target: LAT-1 (Homo sapiens); construct: host or cells: FaDu human nasopharyngeal carcinoma cells; assay: LAT-1 mediated competition studies, boron uptake in FaDu cells; format: cell-based; conditions: 0.5 mM BPA-fructose as substrate, HBSS, 2 hours, 37° C., read-out: IC50 of inhibitor on LAT1-mediated uptake of BPA
PROPERTY_LABEL: IC50 (nM)
Give just the numeric value; nM need not be written.

Q: Note down IC50 recorded for Nc1cc(COc2c(Cl)cc(C[C@H](N)C(=O)O)cc2Cl)c2oc(-c3ccccc3)nc2c1 [JPH203]
Ans: 780

====

biological target: LAT-1 (Homo sapiens, UniProt Q01650); construct: host or cells: FaDu human nasopharyngeal carcinoma cells; test: LAT-1 mediated competition studies, boron uptake in FaDu cells; type: cell-based; conditions: 0.5 mM TLS00192 as substrate, HBSS, 2 hours, 37° C., read-out: IC50 of competitor on boron uptake of TLS00192
PROPERTY_LABEL: IC50 (µM)
Give your result in µM as a bare value.

Q: Identify IC50 associated with the compound N[C@@H](Cc1ccccc1)C(=O)O [L-Phe, phenylalanine]
Ans: 430

Q: For NC1(C(=O)O)CC2CCC1C2 (centres unmarked) [BCH] , write its IC50.
Ans: 800

====

molecular target: LAT-1 (Homo sapiens, UniProt Q01650); construct: host or cells: FaDu human nasopharyngeal carcinoma cells; test: LAT-1 mediated competition studies, boron uptake in FaDu cells; type: cell-based; settings: 0.5 mM BPA-fructose as substrate, HBSS, 2 hours, 37° C., read-out: IC50 of competitor on boron uptake of BPA-Fructose
PROPERTY_LABEL: IC50 (µM)
The reply should be a number in µM, with the unit left off.

N[C@@H](Cc1ccccc1)C(=O)O ... 40

Would you kindly look at the next entry?
Q: Give IC50 for NC1(C(=O)O)CC2CCC1C2 (centres unmarked)
Ans: 140
